- System: PPARg:RXRa 270nM:90nM, anti-RXR (NR concentration 270 nM, RXRa partner concentration 90 nM)
- Protocol summary: PBM binding z-score (relative to random genomic background probes); higher = stronger binding; sequences stand for … in GC…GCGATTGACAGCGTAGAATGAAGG
Assay metric: PBM binding z-score
Reply briefly: the number, and no unit.

IN: Using the record for CTCGAAAGGTCGTGCTCAGGTGAGTGTACCAAAC , report its PBM binding z-score.
OUT: 4.01

IN: Now this one: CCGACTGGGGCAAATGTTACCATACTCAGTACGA
OUT: 5.16

IN: Same question for CGTCCAAGGTCAAACGTCAGTGAAGAGATGACGG please.
OUT: 6.15

IN: Please do the same for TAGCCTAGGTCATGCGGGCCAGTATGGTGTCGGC as well.
OUT: 2.41

IN: Input ATATGTAGGTTAAGGGTCATTTAGGTTGGTTCGC
OUT: 9.62

IN: Would you kindly repeat that for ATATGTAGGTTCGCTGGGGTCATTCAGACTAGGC ?
OUT: 3.83

IN: Moving on to ACTAGCAGGCCAAGTTTGGGTCACTCCAACAAAG
OUT: -0.0928

IN: Another: TGAATGAGGTTATAAGATCAGGGGACGTTGCAAA
OUT: 1.96

IN: Now consider CAAACTAGGTCAGAGGTCAAAGTCGAGCCAACCA .
OUT: 11.1

IN: Please answer likewise for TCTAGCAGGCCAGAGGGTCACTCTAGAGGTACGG
OUT: 2.77

IN: Repeat with CCTCCAAGGTCAGCAGGTCAGTGAAAGCGACGTG
OUT: 4.24

IN: Same for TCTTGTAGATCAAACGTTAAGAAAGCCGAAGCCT
OUT: 3.17

IN: Try this sequence too: AGGACGAGGGCACGCTGAGTTGATAGCAGAGTAG
OUT: 0.43

IN: Next sequence up: ATGCCAAGGTGATCGTGAGGTCGTTGATACTAAC
OUT: 0.399

IN: Next up: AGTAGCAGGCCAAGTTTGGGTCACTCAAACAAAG
OUT: 0.42

IN: Field entry: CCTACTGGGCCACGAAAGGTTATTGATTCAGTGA
OUT: 2.81

IN: // next record TTACCAAGGTGAGCTGAGGTCATTGATCCAACTC
OUT: 2.46

IN: Moving on to the next sequence: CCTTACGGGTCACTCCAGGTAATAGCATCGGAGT
OUT: 3.97

IN: Also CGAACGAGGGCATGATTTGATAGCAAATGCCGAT ?
OUT: 0.441

IN: What about this sequence? TCTCGGAGGACACGAAGGTTAGAGCTTTCCAGAG
OUT: 1

IN: Ok, now ACTAGTTGGCCAGCTGAGGTCACACACAATTCGG
OUT: 1.67

IN: Also, CCTTACGGGTCAAGGTTATAGGACGGGTGGTACG please.
OUT: 4.69

IN: Here is the next sequence: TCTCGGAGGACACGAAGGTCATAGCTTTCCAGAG
OUT: 2.57

IN: And what about the sequence CAAACTAGGTCAAGAGTTCAAAGTCCGCTTCCCG ?
OUT: 7.81

IN: Follow-up entry: CGTCCAAGGTCATAGGAGGTCAGTGAAGACAGAT
OUT: 5.68

IN: Next: CAAACTAGGTCACCGGAAGGTCCAAGTCCGCATG
OUT: 7.31

IN: What about this sequence? ACTAGCAGGCGAAGTTTGGGTCACTCAAACAAAG
OUT: 0.0876

IN: # repeat for CCTACTGGGCCAAACGTCATTGATTCCAATGCTC
OUT: 6.47

IN: Repeat with AGAATGAGGTTATACGTAGAACAGGGAAGAAAGT
OUT: 1.83

IN: Do the same for AGAACGAGGGCACGCTGGGTTGATAGCAGAGTAG please
OUT: 1.91

IN: Record: CCTACTGGGGCAAAGGTTACCATACTCAGTACGA
OUT: 10

IN: Moving on to CGACAAAGTTCAAGGTAACGTAACAGAAAGCAGC
OUT: 4.67

IN: Param item: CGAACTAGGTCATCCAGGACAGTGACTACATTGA
OUT: 6.43

IN: Now give it for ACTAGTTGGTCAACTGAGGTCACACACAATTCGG too.
OUT: 3.01

IN: Same again, this time with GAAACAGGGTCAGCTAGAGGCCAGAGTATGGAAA
OUT: 3.85

IN: What do we get for CGTCCAAGGACATAGGAGGTCAGTGAAGACAGAT ?
OUT: 0.564

IN: Also need CGAACTAGGTAAGAACAGGACAGTGAAGGATGAT , thanks.
OUT: 0.462
